Tested on: HCC-2998 colon
Assay: NCI tumour cell line growth inhibition, 48 h; in the data active = GI50 below about 0.43 µM; inactive = the rest
Please answer using one outcome listed in True for active, False for inactive

Fill in: this test's call for O=C1CC(c2ccc(N3CCOCC3)cc2)(c2ccsc2)NC(=O)C1Sc1ccccc1Cl (configuration not stated) is ___ False

Answer briefly: the call reported for `COc1ccc2c(c1)c(-c1ccc(-c3cn(S(=O)(=O)c4ccccc4)c4ccc(OC)cc34)s1)cn2S(=O)(=O)c1ccccc1` in this assay. False

Status in this test for CC[C@@H](C(=O)[C@@H](C)[C@@H](O)[C@H](C)[C@@H]1O[C@@H]([C@@H](CC)C(=O)O)CC[C@@H]1C)C1O[C@]2(C=CC(=O)[C@]3(CC[C@@](C)([C@H]4CC[C@](O)(CC)[C@H](C)O4)O3)O2)[C@H](C)C[C@@H]1C (some centres not stated) ? True

Call for entry `Cn1cc(-c2nc(-c3c[nH]c4ncccc34)cs2)c2cc(F)ccc21` : False

Please state the recorded outcome for this compound: `Cn1cc(C2=C(c3cccc4ccccc34)C(=O)NC2=O)c2ccccc21` False

Could you check what this test reported for `Cc1nn(-c2nc3ccccc3s2)c(C)c1Oc1ccccc1O` ? False

Dear colleague, could you share the recorded outcome for `CC[C@H](C)[C@H]1NC(=O)[C@@H](N[C@](C)(O)[C@@H](N)CC(C)C)[C@@H](C)OC(=O)[C@H](Cc2ccc(OC)cc2)N(C)C(=O)[C@@H]2CCCN2C(=O)[C@H](CC(C)C)NC(=O)[C@@H](C)C(=O)[C@H](C(C)C)OC(=O)C[C@@H]1O` when you have a moment? True
